recorded_endpoint: logP

Reference set (4 entries):
CCCCCCCCCCCc1cccc(O)c1O    6.3
CCCCCCCCCCCCCc1cccc(O)c1O    7.75
CCCCCCCCCc1ccccc1O    5.76
CCCCCCCCCCCc1ccc(O)cc1    7.18

A: CCCCCCCCCCCCCc1ccccc1O
B: CCCCCc1ccc(O)c(O)c1
C: CCCCCCCCCc1cccc(O)c1
Query string: Ordering criterion: logP; begin with the maximum. Enter labels, ranked according to the request.
Result string: A, C, B
(A: 8.61, C: 5.61, B: 3.11)

----------
recorded_endpoint: logP

CCCCCCCCCCCCCCCc1ccc(O)cc1O    8.29
CCCCCCCCCc1ccc(O)cc1    5.76
CCCCCCCCCCCCCc1ccc(O)cc1O    6.84
CCCCCCCCCCCCc1ccc(O)cc1    7.91
CCCCCCCCCCCc1cccc(O)c1    6.98
CCCCCCCCCCCc1ccccc1O    7.17
CCCCCCCCCCCc1ccc(O)c(O)c1    6.97
